- System: MS2 coat protein
- assayOverview: apparent Kd, MS2 coat protein; higher = weaker binding; RNA-MaP array
- testSettings: designed as: ON switch for flavin mononucleotide; no ligand

{"sequence": "CCUAGACAUGAGGAUCACCCAUGUUAUUGUCUUCAAGGAUAUCGAUGUCUCUCAUAGGCACGAGAAGGUGACUCCU", "apparent Kd, nM": 85.2}
{"sequence": "CCACAGUAUAAAGGAUAUGCGGCCACGGCAACAGCAGAAGGUUAUGCCACUGUACAUGAGGAUCACCCAUGUCCAACUUUCCCU", "apparent Kd, nM": 23.8}
{"sequence": "ACGUGGGUAACCAAGGAUAUAUUUACACCCACAUGAGGAUCACCCAUGUUCUUGCAGGCAUAUAAAUAGAAGGUGGAAACGCAGUG", "apparent Kd, nM": 379}
{"sequence": "ACGGGUGACAAGAAGGGCUAGGUAACAUGCCGUAGACUAGAAUAACAUGAGGAUCACCCAUGUAAGCAGGAUAUUGUAUAAUAA", "apparent Kd, nM": 156}
{"sequence": "ACAUGAGGAUCACCCAUGUUGUCAUAGCAACUUUACAGGAGGAGAAGGCGAGGUUGGGCUGCCCUCGAGGAUAUCCGUAGAAAA", "apparent Kd, nM": 10.4}
{"sequence": "CUCAGCGGGCUAGGAUAUGGCCUGUGGUUUAGGCCAGAAGGAGCUCACUAAGCACAUGAGGAUCACCCAUGUCUCAAUGCCUGA", "apparent Kd, nM": 14.8}
{"sequence": "ACAAUAAAUCAAGGAUAUGAACGAAGCAAGUGAUCAGAAGGUGAAAUAAACCCAUAAACUCCAACAUGAGGAUCACCCAUGUGA", "apparent Kd, nM": 54}

----------
- System: MS2 coat protein
- assayOverview: apparent Kd, MS2 coat protein; higher = weaker binding; RNA-MaP array; FMN 200 µM where present
- testSettings: ligand present: flavin mononucleotide; designed as: OFF switch for flavin mononucleotide

{"sequence": "UAGCUCCAUGUGAGGAUAUAGACUCGGACCCGGGAUUAGAAGGUACAUGAGGAUCACCCAUGUAUCCAACUUGU", "systemUnderTest": "MS2 coat protein", "apparent Kd": "16.6 nM"}
{"sequence": "GCGUAAAAGAUCCUAUUUAUCUACAUGAGGAUCACCCAUGUGCAGGAUAUGCUAAAAUUAAAAUAGCAGAAGGGCAAUAACCGC", "systemUnderTest": "MS2 coat protein", "apparent Kd": "179 nM"}
{"sequence": "CUCGUGUAAGGAUAUGCGAGCCACGGAAAUAAAACGUGGAGGUAGAAGGUACAUGAGGAUCACCCAUGUAAAAC", "systemUnderTest": "MS2 coat protein", "apparent Kd": "85.3 nM"}
{"sequence": "UGAAUGUGAGGAUAUGGUGAGUAGUGCCAGAGCGCUGCUCACCAGAAGGCACAUGAGGAUCACCCAUGUACUUG", "systemUnderTest": "MS2 coat protein", "apparent Kd": "179 nM"}

----------
- Test system: MS2 coat protein
- assayOverview: apparent Kd, MS2 coat protein; higher = weaker binding; RNA-MaP array
- testSettings: ligand present: theophylline; designed as: OFF switch for theophylline
Short version: apparent Kd at least 0.05 µM is 1, less is -1.

{"sequence": "CCUUUUAUUAAUGAUACCAGCGUAUUAAGCAUCACCUUGGACAUGAGGAUCACCCAUGUACGCCCUUGGCAGCAUACCACUGGGU", "systemUnderTest": "MS2 coat protein", "cat": 1}
{"sequence": "UGCGAUGAACCUGAUACCAGAUGUAUUUGCUCCUCGGACAACAUGAGGAUCACCCAUGUCAUCCCUUGGCAGCAGGAGCGAAAGC", "systemUnderTest": "MS2 coat protein", "cat": -1}
{"sequence": "ACACGUGACAAGGAUACCAGCCUGGCUAGUUCAAACCCUCACAUGAGGAUCACCCAUGUAGGCCCUUGGCAGCCUAUAGUCUAAG", "systemUnderTest": "MS2 coat protein", "cat": 1}
{"sequence": "GAAGAGAGGAUACCGUUUGUAUACAACGAUACCAGUGGUAUGUAUCACCCUUGGCAGCGUGAGACAUGAGGAUCACCCAUGUGGC", "systemUnderTest": "MS2 coat protein", "cat": -1}
{"sequence": "AGAUCGCUGACCGCGGGAGAUGCGCAGGAUACCAGCCUAAUGUCCGGCCCUUGGCAGCCUGUAACAUGAGGAUCACCCAUGUGAA", "systemUnderTest": "MS2 coat protein", "cat": -1}
{"sequence": "AUGCACAUCUAGGAUACCAGCACCCUUAUGUCACUAGUUAACAUGAGGAUCACCCAUGUUUGCCCUUGGCAGCCUCAUUGACCAU", "systemUnderTest": "MS2 coat protein", "cat": 1}

----------
- System: MS2 coat protein
- assayOverview: apparent Kd, MS2 coat protein; higher = weaker binding; RNA-MaP array; FMN 200 µM where present
- testSettings: designed as: ON switch for flavin mononucleotide; no ligand
// apparent Kd lookup, one value per entry

{"sequence": "GGAAAACAUGAGGAUCACCCAUGUGAAAACGUGGGAGGAUAUGGAUGGAAACCAUACUGUCCAGAAGGCCCAUGUC", "endpointUnit": "nM", "apparent Kd": 67.6}
{"sequence": "GCACUUACGUUAGGAUAUGUAUCGGAAAACGAUACAGAAGGAAUAUGGGAACAUGAGGAUCACCCAUGUUCCUGAGACAAGUGC", "endpointUnit": "nM", "apparent Kd": 46.5}
{"sequence": "GUAGCAUUGACAGGAUAUCCAUAUCCGAAAGGGACAUGAGGAUCACCCAUGUCGCGAAAGCGGUGGGAGAAGGGUCUAUGCUAC", "endpointUnit": "nM", "apparent Kd": 5.03}
{"sequence": "UUGGAGUACGUAGGAUAUGUAGGAUUUUCCUACAUGAGGAUCACCCAUGUUAGCAUGGAAGAAGGACAGAAGGACGUGCUCCAU", "endpointUnit": "nM", "apparent Kd": 1040}
{"sequence": "GGCAGCGGACAAGGAUAUAAGACGCAGACCAAAUUAGAAGGUGUCAUCUGGCAAUGCGAAAGCAGACAUGAGGAUCACCCAUGU", "endpointUnit": "nM", "apparent Kd": 68.8}
{"sequence": "ACAGAGCUUGACAUGAGGAUCACCCAUGUUAGAUUGUUAUGUCAGGAUAUUGUCUAGCAACUAGACAAGAAGGGAUGCUCUGUG", "endpointUnit": "nM", "apparent Kd": 364}
{"sequence": "UAUAUUAUUAUAGGAUAUGGAUACGAUGCGUAUCCAGAAGGGUGAUUAUAAUAUAAUCUAUACAUGAGGAUCACCCAUGUUUAU", "endpointUnit": "nM", "apparent Kd": 303}
{"sequence": "CGCCGACAUGAGGAUCACCCAUGUCACAACUGGUCAGGAUAUGGUAUGAAAUGGCUAUUGCCAGAAGGGACCUCAG", "endpointUnit": "nM", "apparent Kd": 40.9}
{"sequence": "AGAAAACAUGAGGAUCACCCAUGUAGAAAUAUGGGAGGAUAUACAAAGACGAAAGUCAGAGUAGAAGGCCUAAAAA", "endpointUnit": "nM", "apparent Kd": 65.2}
{"sequence": "CGGAUCGCAUGAGGAUAUGGUCAGCUUUGCUGACCAGAAGGCAUGUCAUAAGACAUGAGGAUCACCCAUGUAGUUAAGAUCCGA", "endpointUnit": "nM", "apparent Kd": 576}
{"sequence": "ACAUGGAAUACAGGAUAUGUUAGUUUACAGUAGAUUGGUUAUUACUUAACUACAGAAGGGUAAUACAUGAGGAUCACCCAUGUA", "endpointUnit": "nM", "apparent Kd": 18.4}
{"sequence": "ACAUGAGGAUCACCCAUGUUAAAUUAGGAUAUAUGACUGCACAUGAGGUUCACCCAUGUUCUACCGUAGAAGGGAUAAAUAAUU", "endpointUnit": "nM", "apparent Kd": 52.6}
{"sequence": "AAUAGUGGCGUAGGAUAUCUGCGUACAUGAGGAUCACCCAUGUCUCCCAGCCGCUGAGCUGGGACAGAGAAGGGCGACCGCAUA", "endpointUnit": "nM", "apparent Kd": 229}
{"sequence": "CGCAAUGAUGGUAGUAAUAGAGCAUAGGAUAUGCUUGUACAUGAGGAUCACCCAUGUUAUAUUUUGCAGAAGGGUGUAAUUGCG", "endpointUnit": "nM", "apparent Kd": 309}
{"sequence": "UAUAUAUAAUAUAUUAACAUGAGGAUCACCCAUGUCGCUAGACAGGAUAUAUUUAAUAUUAUAAAGUAGAAGGGUCAUAUAAUU", "endpointUnit": "nM", "apparent Kd": 50.5}
{"sequence": "AGAUAUAUACAUGAGGAUCACCCAUGUUAAUAGGUGUUUGUCAGAAGGCAUUAUGAGAGAAUUAAUGAGGAUAUGAAGUAUCAU", "endpointUnit": "nM", "apparent Kd": 37.3}
{"sequence": "CUUAGUUUGUAGAAGGGUGACAUGAGGAUCACCCAUGUGCGUCGCCUGGAAGACCAGGGUACGCCACAGGAUAUACAAAGUAAG", "endpointUnit": "nM", "apparent Kd": 46.7}
{"sequence": "UUGGACGCCGUAGGAUAUGUAGGAUAUUCCUACAUGAGGAUCACCCAUGUUGACAUGGAAGAAGGACAGAAGGACGAUGUCCAU", "endpointUnit": "nM", "apparent Kd": 277}
{"sequence": "UUAAUAAUACAAGGAUAUCUAUUGUUCUUUCGACAUACAUGAGGAUCACCCAUGUUAAUAUAUAUAGAGAAGGUGUAUUUUCAG", "endpointUnit": "nM", "apparent Kd": 28}
{"sequence": "UUGGACGUCGUAGGAUAUGUAGGAUUUUCCUACAUGAGGAUCACCCAUGUUGACAUGGAAGAAGGACAGAAGGACGAUGUCCAU", "endpointUnit": "nM", "apparent Kd": 648}
{"sequence": "UUCGACGUCGUAGGAUAUGUAGGAUAUUCCUACAUGAGGAUCACCCAUGUUGACAUGGAAGAAGGACAGAAGGACGAUGUCCAU", "endpointUnit": "nM", "apparent Kd": 301}
{"sequence": "CCCUCACAUGAGGAUCACCCAUGUCCUAGCCCGUCAGGAUAUAGCCCGCAUCCGCUGCGGCUAGAAGGGACAGCUG", "endpointUnit": "nM", "apparent Kd": 190}
{"sequence": "ACAUGAGGAUCACCCAUGUGGACAUAGGAUAUUGGUGAUCAGGCGUGUUAUACAGGAUAGGUCUGCGAGAAGGGUGUACGUUGC", "endpointUnit": "nM", "apparent Kd": 588}
{"sequence": "UGCCUGAGUCGAGGAUAUUAUGGAUCCUUUAAUACAUGAGGAUCACCCAUGUAAUUAAUUAUACAUGAGAAGGCGACUCAGGCU", "endpointUnit": "nM", "apparent Kd": 88.8}
{"sequence": "UUGGACGUCGUAGGAUAUGUAGGAUAUUCCUACAUGAGGAUCACCCAUGUUGACAUGGUAGAAGGACAGAAGGACGAUGUCCAU", "endpointUnit": "nM", "apparent Kd": 423}
{"sequence": "UUAUUUGUACAAGGAUAUCUAUUAUAUUCACGUCCUACAUGAGGAUCACCCAUGUUAUAUAUUUUAGAGAAGGUGUAUUGUCUG", "endpointUnit": "nM", "apparent Kd": 31.9}
{"sequence": "GGUACCAUCACAGGAUAUGCAAUCCUUUGGGUUGCAGAAGGGUGUAACAUGAGGAUCACCCAUGUGGUGCCAGGGCGUGAGCCC", "endpointUnit": "nM", "apparent Kd": 423}
{"sequence": "GGGUACAUCGGAGGAUAUCAUAUAAAUACAUGAGGAUCACCCAUGUCGAUGGAGACAUCGGAGAUUGAGAAGGCCGAUGUACCG", "endpointUnit": "nM", "apparent Kd": 8.43}
